Data origin, for the record: ChEMBL document CHEMBL4422649

- TARGET_DESC: Envelope glycoprotein gp160 (Human immunodeficiency virus 1)
- Sequence (Q6QLK5 whole entry): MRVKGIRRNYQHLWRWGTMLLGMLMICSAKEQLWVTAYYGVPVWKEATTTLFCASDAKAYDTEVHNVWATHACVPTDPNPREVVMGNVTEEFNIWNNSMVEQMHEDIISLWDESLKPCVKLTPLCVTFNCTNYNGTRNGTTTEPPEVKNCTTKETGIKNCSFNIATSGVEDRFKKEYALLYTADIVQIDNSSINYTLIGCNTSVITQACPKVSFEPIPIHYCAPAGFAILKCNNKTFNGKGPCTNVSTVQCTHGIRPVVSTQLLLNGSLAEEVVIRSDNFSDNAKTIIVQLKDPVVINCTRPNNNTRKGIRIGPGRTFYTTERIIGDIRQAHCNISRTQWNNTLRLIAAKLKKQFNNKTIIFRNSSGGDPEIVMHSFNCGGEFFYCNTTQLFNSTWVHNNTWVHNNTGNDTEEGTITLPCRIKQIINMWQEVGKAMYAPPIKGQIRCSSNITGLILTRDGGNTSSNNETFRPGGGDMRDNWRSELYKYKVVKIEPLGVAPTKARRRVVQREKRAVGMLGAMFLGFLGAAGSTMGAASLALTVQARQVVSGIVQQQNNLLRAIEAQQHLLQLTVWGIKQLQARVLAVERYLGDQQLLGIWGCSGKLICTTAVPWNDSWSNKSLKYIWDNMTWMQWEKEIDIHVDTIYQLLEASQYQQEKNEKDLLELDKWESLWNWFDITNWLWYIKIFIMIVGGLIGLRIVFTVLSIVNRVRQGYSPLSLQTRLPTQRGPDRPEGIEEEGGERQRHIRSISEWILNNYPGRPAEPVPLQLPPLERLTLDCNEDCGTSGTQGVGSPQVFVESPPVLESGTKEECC
- ASSAY_EXPLANATION: Binding affinity to HIV1 cYTA48P envelope glycoprotein gp120 infected in human TZM-b1 cells assessed as induction of conformational changes measured after 48 hrs
hey, just use Yes if measured IC50 is less than 4 µM, otherwise No

Request: Does this molecule meet the criterion IC50 < 4 µM? CC1(C)CC(NC(=O)C(=O)Nc2cnc(F)c(F)c2)CC(C)(C)N1
Result: No

Request: Does this molecule meet the criterion IC50 < 4 µM? CC1(C)CC(NC(=O)C(=O)Nc2ccncc2)CC(C)(C)N1
Result: No

Request: Does this molecule meet the criterion IC50 < 4 µM? CC1(C)CC(NC(=O)C(=O)Nc2ccc(I)cn2)CC(C)(C)N1
Result: No

Request: Does this molecule meet the criterion IC50 < 4 µM? O=C1Nc2ccc(Cl)cc2[C@@](C#CC2CC2)(C(F)(F)F)O1 [EFAVIRENZ]
Result: Yes

Request: Does this molecule meet the criterion IC50 < 4 µM? CC1(C)CC(NC(=O)C(=O)Nc2ccc(Br)nc2)CC(C)(C)N1
Result: Yes

Request: Does this molecule meet the criterion IC50 < 4 µM? CC1(C)CC(NC(=O)C(=O)Nc2ccnc(Br)c2)CC(C)(C)N1
Result: Yes

Request: Does this molecule meet the criterion IC50 < 4 µM? Cc1cccc(NC(=O)C(=O)NC2CC(C)(C)NC(C)(C)C2)n1
Result: No

Request: Does this molecule meet the criterion IC50 < 4 µM? CC1(C)CC(NC(=O)C(=O)Nc2ccc(C(F)(F)F)cn2)CC(C)(C)N1
Result: No

Request: Does this molecule meet the criterion IC50 < 4 µM? CC1(C)CC(NC(=O)C(=O)Nc2cccnc2)CC(C)(C)N1
Result: No

* * *

- TARGET_DESC: Envelope glycoprotein gp160 (Human immunodeficiency virus 1)
- ASSAY_EXPLANATION: Binding affinity to HIV1 cYTA48P envelope glycoprotein gp120 infected in human TZM-b1 cells assessed as induction of conformational changes measured after 48 hrs
QUANTITY: pIC50
Interpret pIC50 as the negative base-10 log of the concentration measured in mol/L.

The compound listed as O=C(Nc1ccc(Br)nc1)C(=O)NC1CCNC2(CCCCC2)C1 (stereo unspecified) shows pIC50 equal to 5.92

The compound listed as CC1(C)CC(NC(=O)C(=O)Nc2ccnc(F)c2)CC(C)(C)N1 shows pIC50 equal to 4.20

The compound listed as CC1(C)CC(NC(=O)C(=O)Nc2ccc(F)cn2)CC(C)(C)N1 shows pIC50 equal to 4.23

The compound listed as CC1(C)CC(NC(=O)C(=O)Nc2ccc(Br)cn2)CC(C)(C)N1 shows pIC50 equal to 4.38

The compound listed as CC1(C)CC(NC(=O)C(=O)Nc2ccnc(Cl)c2)CC(C)(C)N1 shows pIC50 equal to 5.64

The compound listed as CC1(C)CC(NC(=O)C(=O)Nc2ccc(F)nc2)CC(C)(C)N1 shows pIC50 equal to 5.68

The compound listed as COc1ccc(NC(=O)C(=O)NC2CC(C)(C)NC(C)(C)C2)cn1 shows pIC50 equal to 4.57

The compound listed as O=C(Nc1ccc(F)nc1)C(=O)NC1CCNC2(CCCCC2)C1 (stereo unspecified) shows pIC50 equal to 6.34

The compound listed as CC1(C)CC(NC(=O)C(=O)Nc2ccc(Cl)cc2)CC(C)(C)N1 shows pIC50 equal to 6.77

The compound listed as CC1(C)CC(NC(=O)C(=O)Nc2ccc(Cl)cn2)CC(C)(C)N1 shows pIC50 equal to 4.21
